src = ChEMBL document CHEMBL1201862

Catalogue of compounds with associated IC50
Biological target: Fatty acid synthase (Homo sapiens, UniProt P49327)
Sequence (P49327 whole entry, the tested form may be a part): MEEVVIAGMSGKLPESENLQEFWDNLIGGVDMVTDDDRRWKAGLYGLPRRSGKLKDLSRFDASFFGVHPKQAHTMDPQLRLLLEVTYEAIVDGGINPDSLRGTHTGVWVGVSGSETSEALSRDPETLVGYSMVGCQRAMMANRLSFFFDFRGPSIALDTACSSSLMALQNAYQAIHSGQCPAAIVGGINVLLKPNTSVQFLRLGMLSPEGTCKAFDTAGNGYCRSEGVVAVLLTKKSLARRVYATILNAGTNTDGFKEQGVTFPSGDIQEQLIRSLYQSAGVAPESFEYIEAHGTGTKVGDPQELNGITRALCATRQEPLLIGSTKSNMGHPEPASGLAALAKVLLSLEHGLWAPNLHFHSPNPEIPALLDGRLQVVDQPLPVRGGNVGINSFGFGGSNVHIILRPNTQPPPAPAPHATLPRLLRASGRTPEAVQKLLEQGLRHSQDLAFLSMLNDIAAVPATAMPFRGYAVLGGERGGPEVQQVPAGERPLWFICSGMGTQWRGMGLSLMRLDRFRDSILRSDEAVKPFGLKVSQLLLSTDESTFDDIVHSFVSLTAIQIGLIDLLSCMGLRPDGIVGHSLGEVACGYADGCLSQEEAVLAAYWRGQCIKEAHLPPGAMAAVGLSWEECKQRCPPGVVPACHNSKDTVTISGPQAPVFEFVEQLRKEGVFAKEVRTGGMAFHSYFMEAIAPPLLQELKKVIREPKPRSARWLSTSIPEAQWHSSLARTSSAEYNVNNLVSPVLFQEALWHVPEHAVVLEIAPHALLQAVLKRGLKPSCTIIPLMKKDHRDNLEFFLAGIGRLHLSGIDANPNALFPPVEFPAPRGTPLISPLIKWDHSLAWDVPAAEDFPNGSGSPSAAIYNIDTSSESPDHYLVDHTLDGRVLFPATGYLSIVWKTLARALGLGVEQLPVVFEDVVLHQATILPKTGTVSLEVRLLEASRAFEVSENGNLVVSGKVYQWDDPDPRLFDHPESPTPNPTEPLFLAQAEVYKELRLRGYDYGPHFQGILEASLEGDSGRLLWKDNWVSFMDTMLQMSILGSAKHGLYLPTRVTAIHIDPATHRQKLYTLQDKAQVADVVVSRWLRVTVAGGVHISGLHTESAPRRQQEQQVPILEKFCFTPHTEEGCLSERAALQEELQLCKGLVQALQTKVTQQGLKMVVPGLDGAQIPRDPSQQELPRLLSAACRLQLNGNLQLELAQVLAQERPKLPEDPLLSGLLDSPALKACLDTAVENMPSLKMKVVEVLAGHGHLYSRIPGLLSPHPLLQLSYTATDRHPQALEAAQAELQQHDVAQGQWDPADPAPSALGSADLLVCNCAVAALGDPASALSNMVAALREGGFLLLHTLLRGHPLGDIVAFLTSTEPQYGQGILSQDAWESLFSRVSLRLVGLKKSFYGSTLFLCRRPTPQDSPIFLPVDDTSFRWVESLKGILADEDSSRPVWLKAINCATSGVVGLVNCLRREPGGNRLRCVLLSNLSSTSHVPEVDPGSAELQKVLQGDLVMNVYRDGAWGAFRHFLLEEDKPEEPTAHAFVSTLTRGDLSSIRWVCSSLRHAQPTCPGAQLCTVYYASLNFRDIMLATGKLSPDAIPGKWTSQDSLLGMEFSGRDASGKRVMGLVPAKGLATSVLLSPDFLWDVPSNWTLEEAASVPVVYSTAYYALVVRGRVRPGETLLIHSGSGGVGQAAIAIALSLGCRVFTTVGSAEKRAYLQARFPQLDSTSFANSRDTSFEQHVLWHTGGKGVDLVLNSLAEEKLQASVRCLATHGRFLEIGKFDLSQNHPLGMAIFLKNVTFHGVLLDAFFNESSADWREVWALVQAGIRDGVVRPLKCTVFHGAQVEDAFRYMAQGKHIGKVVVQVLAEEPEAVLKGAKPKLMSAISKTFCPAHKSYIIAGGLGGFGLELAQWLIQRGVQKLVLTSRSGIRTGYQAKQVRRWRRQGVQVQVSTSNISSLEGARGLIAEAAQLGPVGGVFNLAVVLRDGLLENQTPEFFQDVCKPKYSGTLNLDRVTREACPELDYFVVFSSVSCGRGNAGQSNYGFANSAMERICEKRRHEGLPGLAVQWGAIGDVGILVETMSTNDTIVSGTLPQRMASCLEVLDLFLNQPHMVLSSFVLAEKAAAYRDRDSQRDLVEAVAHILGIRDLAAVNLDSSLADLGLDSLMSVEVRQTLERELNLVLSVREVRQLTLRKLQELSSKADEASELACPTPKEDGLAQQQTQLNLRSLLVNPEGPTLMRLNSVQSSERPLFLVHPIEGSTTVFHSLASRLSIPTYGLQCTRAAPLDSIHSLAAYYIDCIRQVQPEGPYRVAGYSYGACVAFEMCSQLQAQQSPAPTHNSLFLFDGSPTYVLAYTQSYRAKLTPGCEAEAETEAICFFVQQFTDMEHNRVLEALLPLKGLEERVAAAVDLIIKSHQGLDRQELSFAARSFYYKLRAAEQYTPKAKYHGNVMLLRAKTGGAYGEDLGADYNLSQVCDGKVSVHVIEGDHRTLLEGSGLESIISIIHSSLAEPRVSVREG
Experiment: FAS thioesterase domain inhibitors, dose response, biochemical, kinetic fluorescence intensity (AID 624326);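 note: rate of fluorescence rise from hydrolysis of a fluorogenic O-methyl fluorescein ester substrate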
Assay type: functional
Calls of active or inactive are those of the source.
endpoint-name: IC50

1) NP(=O)(Oc1ccccc1Cl)Oc1ccccc1Cl : 8.31 µM (active)
2) CCn1c(C)c(C(C)=O)c(N2CCN(C(c3ccccc3)c3ccccc3)CC2)nc1=S : 23.1 µM (inactive)
3) Cc1ccc(NC(=O)NNC(=O)Cn2nc(-c3ccccc3)c(-c3ccccc3)c(C#N)c2=O)cc1 : 4.64 µM (active)
4) Cc1cccc(NC(=O)c2[nH]cnc2C(=O)N[C@@H](CCCCNC(=O)OC(C)(C)C)C(=O)OC(C)(C)C)c1 : 0.658 µM (active)
5) O=C(O)CC(NC(=O)CC(c1ccccc1)c1ccccc1)c1cccc([N+](=O)[O-])c1 (stereo unspecified) : 9.88 µM (active)
6) COc1cc(/C=N/NC(=O)C(Cc2c[nH]c3ccccc23)NC(=O)OCc2ccccc2)cc([N+](=O)[O-])c1O (stereo unspecified) : 8.12 µM (active)
7) O=C(Nc1ccccc1[N+](=O)[O-])OCC=Cc1ccccc1 : 6.3 µM (active)
8) O=C1Nc2cc(Cl)c(Cl)cc2N(O)N1c1ccc(Cl)c(Cl)c1 : 12 µM (active)
9) COc1ccc(C2=NN(C(=O)CSc3nc(=O)n4cc(C)ccc4n3)C(c3ccc(C)cc3)C2)cc1 (stereo unspecified) : 12.9 µM (active)
10) CC(C)c1ccc2c(c1)c(SC(C)(C)C)c(CC(C)(C)C(=O)O)n2Cc1ccc(Cl)cc1 : 8.48 µM (active)
11) Cc1cccc(COCC(CC(C)C)N2CCN(C(=O)c3ccc(C(C)(C)C)cc3)CCC2=O)c1 (stereo unspecified) : 6.11 µM (active)

* * *

Molecular target: Sentrin-specific protease 6 (Homo sapiens);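 note: Luminescence-based dose-response confirmatory assay of SENP6 inhibition, following up an ultra-high-throughput screen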
Sequence (Q9GZR1 whole entry): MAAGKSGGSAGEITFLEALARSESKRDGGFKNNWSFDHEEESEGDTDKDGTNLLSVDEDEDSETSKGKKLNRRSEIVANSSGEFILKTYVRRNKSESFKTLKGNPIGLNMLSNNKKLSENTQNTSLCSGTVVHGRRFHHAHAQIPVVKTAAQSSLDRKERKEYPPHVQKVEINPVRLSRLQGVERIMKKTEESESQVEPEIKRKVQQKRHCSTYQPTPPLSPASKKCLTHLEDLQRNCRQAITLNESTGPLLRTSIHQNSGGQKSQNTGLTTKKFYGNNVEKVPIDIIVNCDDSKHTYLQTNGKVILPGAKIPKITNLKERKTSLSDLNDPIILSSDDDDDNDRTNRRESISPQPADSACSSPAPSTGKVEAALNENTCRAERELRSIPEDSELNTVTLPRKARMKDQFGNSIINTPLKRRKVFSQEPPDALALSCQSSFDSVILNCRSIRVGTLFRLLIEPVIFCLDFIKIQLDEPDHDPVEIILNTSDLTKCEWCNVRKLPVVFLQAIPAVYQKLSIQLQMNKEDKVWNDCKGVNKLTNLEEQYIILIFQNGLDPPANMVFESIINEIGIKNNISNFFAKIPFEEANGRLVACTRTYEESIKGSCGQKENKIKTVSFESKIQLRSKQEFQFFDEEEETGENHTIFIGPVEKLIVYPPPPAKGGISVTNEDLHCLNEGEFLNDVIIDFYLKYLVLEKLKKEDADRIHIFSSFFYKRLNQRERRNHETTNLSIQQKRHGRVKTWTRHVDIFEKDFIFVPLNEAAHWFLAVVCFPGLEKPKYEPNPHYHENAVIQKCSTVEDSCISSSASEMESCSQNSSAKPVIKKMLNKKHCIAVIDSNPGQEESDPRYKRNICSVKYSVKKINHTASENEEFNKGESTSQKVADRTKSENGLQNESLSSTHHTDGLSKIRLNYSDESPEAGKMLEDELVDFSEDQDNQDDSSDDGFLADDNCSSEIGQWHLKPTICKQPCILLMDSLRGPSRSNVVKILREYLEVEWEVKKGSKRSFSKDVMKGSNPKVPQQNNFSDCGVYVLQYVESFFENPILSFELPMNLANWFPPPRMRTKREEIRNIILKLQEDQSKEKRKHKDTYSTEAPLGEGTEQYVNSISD
Type: functional
Activity calls are given as the source filed them.
Classes used: active, inactive

1) Brc1c(-c2ccccc2)nc2n1Cc1ccccc1-2 : active
2) Oc1[nH]c2ccccc2c1N=Nc1nc2ccccc2s1 : active
3) Clc1cccc(-c2ccc(-c3nc4ccccn4c3NCc3ccccc3)cc2)c1 : active
4) O=c1[nH]c(/C=C/c2ccccc2Cl)nc2ccccc12 : active
5) COc1ccc(C(=O)COC(=O)c2ccccc2O)c(OC)c1 : active
6) Cc1ccc(O)c(C2=Nc3ccccc3C2(C)C)c1 : active
7) O=C(Nc1ccccc1)Nc1ccccc1C(=O)NCc1ccccc1 : inactive
8) O=C(COC(=O)c1ccc([N+](=O)[O-])s1)c1ccc[nH]1 : active
9) CCOC(=O)/C(C#N)=C/c1ccc(N2CCCCC2)cc1 : active
10) O=C(OCc1ccccc1Cl)c1cccnc1Cl : active

* * *

Molecular target: Short transient receptor potential channel 4 (Mus musculus, UniProt Q9QUQ5)
Sequence (Q9QUQ5 whole entry): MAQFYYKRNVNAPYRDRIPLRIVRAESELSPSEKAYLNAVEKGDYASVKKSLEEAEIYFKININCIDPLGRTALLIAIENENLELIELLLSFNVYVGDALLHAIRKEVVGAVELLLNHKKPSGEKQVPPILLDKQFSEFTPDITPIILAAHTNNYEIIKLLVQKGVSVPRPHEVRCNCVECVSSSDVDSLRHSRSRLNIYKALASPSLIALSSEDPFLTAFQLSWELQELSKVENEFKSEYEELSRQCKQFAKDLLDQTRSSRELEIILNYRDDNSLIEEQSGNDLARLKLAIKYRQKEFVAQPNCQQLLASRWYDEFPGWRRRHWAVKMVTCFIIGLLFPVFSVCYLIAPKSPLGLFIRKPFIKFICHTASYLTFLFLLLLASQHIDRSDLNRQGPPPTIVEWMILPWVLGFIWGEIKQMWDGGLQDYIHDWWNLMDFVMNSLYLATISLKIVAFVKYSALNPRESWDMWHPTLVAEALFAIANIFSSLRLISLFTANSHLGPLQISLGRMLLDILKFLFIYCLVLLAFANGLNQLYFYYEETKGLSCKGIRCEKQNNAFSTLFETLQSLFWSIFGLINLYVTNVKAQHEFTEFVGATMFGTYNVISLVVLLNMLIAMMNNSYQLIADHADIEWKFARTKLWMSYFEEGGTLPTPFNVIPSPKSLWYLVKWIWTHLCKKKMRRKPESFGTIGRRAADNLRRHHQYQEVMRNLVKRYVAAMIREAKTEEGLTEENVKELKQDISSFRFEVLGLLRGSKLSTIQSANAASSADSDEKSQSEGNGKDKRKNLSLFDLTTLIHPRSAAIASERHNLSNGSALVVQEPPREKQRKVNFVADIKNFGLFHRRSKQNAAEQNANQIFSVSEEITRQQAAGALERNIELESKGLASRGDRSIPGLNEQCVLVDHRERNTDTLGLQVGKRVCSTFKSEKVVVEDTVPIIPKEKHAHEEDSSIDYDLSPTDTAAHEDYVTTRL
Experiment: mouse TRPC4 channel activators, dose response, cell-based, HEK293 TRPC4/mu-opioid, Fluo-4 calcium (AID 434937)
Assay type: functional
Calls of active or inactive are those of the source.
endpoint-name: EC50

1) COc1ccc(C(CNC(=O)/C=C/c2c(Cl)nc3ccccn23)N(C)C)cc1 (stereo not given) : 0.473 µM (active)
2) CN(C)C(CN=C(S)Nc1ccccc1)c1cccnc1 (stereo not given) : 0.149 µM (active)
3) CC(Nc1nc(N2CCNCC2)nc2ccccc12)c1ccccc1 (stereo not given) : 5.31 µM (active)
4) Cc1nc2ccccn2c1P(=S)(N1CCCCC1)N1CCCCC1 : 5.96 µM (active)
5) COc1cccc(CC2(CO)CCCN(Cc3ccccc3-c3ccco3)C2)c1 (stereo not given) : 2.66 µM (active)
